Just for reference, patent US20210070872A1 is where these values come from.

- target entity: T1, biotinylated GITR (human, UniProt Q9Y5U5 26-161, limits assumed, biotinylated (sites not given))
- T1 construct: also called GITR-bio; Biotin-GITR
- T1 sequence: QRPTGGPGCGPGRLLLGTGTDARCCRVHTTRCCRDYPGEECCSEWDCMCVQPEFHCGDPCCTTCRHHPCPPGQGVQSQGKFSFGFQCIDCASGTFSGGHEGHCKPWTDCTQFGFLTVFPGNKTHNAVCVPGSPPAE
- assay name: BLI (Octet), biotin-GITR on streptavidin tips, antibody supernatant
For each of the binders below, state its Kd.
Give the quantity in nM, number only.

Prompt: // query Kd value for entry germline variant antibody 95 (H1917G05 / K1917G05) (antibody, V domains shown, IGHG1/IGKC expression vectors; measured from CHO culture supernatant; also called Antibody ID 95) VH: QVQLVQSGAEVKKPGASVKVSCKGSGYTFTDYAMYWVRQAPGQGLEWMGLIRTYSGGVSYNQKFRGRVTMTVDTSISTAYMELSRLRSDDTAVYYCAKSGTVRGFAYWGQGTFVTVSS VL: DIVMTQSPDSLAVSLGERATINCKSSQSLLNSGNQKNYLTWYQQKPGQPPKMLIYWASTRESGVPDRFSGSGSGTDFTLTISSVQAEDVAVYHCQNDYSFPYTFGQGTKLEIK
Completion: 2.21

Prompt: Now consider germline variant antibody 58 (H1916G04 / K1916G04) (antibody, V domains shown, IGHG1/IGKC expression vectors; measured from CHO culture supernatant; also called Antibody ID 58) VH: QVQLVQSGAEVKKPGASVKVSCKGSGYTFTDYAMYWVRQAPGQGLEWMGVIRTYSGGVTYNQKFKGRATMTVDKSISTAYMELSRLRSDDTAVYYCAKSGTVRGFAYWGQGTLVTVSS VL: DIVMTQSPDSLAVSLGERATINCKSSQSLLNSGNQKNYLSWYHQKPGQPPKLLIYWASTRESGVPDRFSGSGSGTDFTLTISSVQAEDVAVYHCQNDYSYPYTFGQGTKLEIK .
Completion: 1.58

Prompt: Now consider germline variant antibody 91 (H1917F03 / K1917F03) (antibody, V domains shown, IGHG1/IGKC expression vectors; measured from CHO culture supernatant; also called Antibody ID 91) VH: QVQLVQSGTEVKKPGASVKVSCKGSGYTFTEYAMHWVRQAPGQGMEWMGLIRTYSGGVSYNQKFQERATMTVDTSISTAYMELSRLRSDDTAVYYCAKSGTVRGFAYWGQGTLVTVSS VL: DIVMTQSPDSLAVSLGERATINCKSSQSLLNSGNQKNYLSWYQQKPGQPPKLLIYWASTRESGVPDRFSGSGSGTDFTLTISSVQAEDVAVYHCQNEYSFPYTFGQGTKLEIK .
Completion: 3.07
